Tested on: fibrosarcoma HT1080
Test: Inhibition of tumor cell growth, HT1080
Type: cell-based
Details: Homo sapiens, HT-1080
pIC50: −log10 of the molar value.
ASSAY_METRIC: pIC50

Cc1ccc(S(=O)(=O)Nc2ccc(-c3ccccc3)c3cccnc23)cc1 :: 5.79
Cc1ccc(S(=O)(=O)Nc2ccc(-c3ccsc3)c3cccnc23)cc1 :: 6.19
Cc1ccc(S(=O)(=O)Nc2ccc(-c3cc4ccccc4s3)c3cccnc23)cc1 :: 6.82

====

Target: Cks1-Skp2 protein-protein interaction (Homo sapiens, UniProt P61024+Q13309)
Sequence (P61024 whole entry): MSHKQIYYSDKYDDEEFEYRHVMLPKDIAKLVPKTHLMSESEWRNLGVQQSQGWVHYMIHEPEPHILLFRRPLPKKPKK
Sequence (Q13309 whole entry): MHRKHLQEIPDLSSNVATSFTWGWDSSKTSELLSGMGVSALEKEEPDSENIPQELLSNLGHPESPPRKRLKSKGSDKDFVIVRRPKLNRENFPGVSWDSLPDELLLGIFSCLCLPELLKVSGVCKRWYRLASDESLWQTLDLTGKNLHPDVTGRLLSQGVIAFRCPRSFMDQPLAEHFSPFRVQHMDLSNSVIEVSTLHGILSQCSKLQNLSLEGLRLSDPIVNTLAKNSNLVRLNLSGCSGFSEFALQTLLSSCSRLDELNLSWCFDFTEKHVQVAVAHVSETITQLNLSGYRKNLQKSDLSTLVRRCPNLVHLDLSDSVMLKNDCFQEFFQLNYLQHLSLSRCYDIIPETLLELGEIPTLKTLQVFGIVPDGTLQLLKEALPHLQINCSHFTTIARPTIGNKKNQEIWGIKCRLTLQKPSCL
Assay: Cks1-Skp2 protein-protein interaction ELISA
Format: binding
Details: sulfonamide analogues; Table 2; read-out: Potency in the Cks1-Skp2 interaction assay
Excerpt: In vitro binding of Skp2 to Cks1 was established in an ELISA assay format, with Cks1 protein immobilized on a 384-well plate and binding of Skp1/Skp2 to Cks1 detected by anti-Skp2 immunoreaction.
Threshold 7 µM: IC50 strictly smaller gives Met, otherwise Not met.

O=S(=O)(Nc1ccc(-c2ccccc2)c2cccnc12)c1cccc(C(F)(F)F)c1 [Compound 18] :: Met
O=S(=O)(Nc1ccc(-c2ccccc2)c2cccnc12)C1CC1 [Compound 16] :: Not met
O=S(=O)(Nc1ccc(-c2cccnc2)c2cccnc12)c1cccnc1 [Compound 25] :: Met
O=S(=O)(Nc1ccc(-c2cccnc2)c2cccnc12)c1cccc(C(F)(F)F)c1 [Compound 24] :: Met
